# Assay protocol: A CellTox Green Cytotoxicity Assay to monitor cytotoxicity in HEK293 cells - 16 hour (AID 1224888); further: nearly all actives have a fitted effect of over 35% in size
# Reported conditions: CellTox Green fluorescence; series mostly up to 76.8 µM
Inconclusive results are not listed. Active and inactive are the calls of the source. The call rests on the fitted dose curve; in most records, active means well fitted activation curve with a large enough effect in the repeat runs; inconclusive means weak or mixed curves; inactive means flat fitted curve, though single readings scatter.
Output constraint: value belongs to 1.0 = active, 0.0 = inactive

Lookup: Returns: the outcome recorded for COc1ccc(OC)c(CC(C)N)c1 (stereo not given) in this assay.
Found: 0.0

Lookup: Returns: the outcome recorded for `CCN` in this assay.
Found: 0.0

Lookup: Returns: the outcome recorded for `C[C@@H]1O[C@@H](O[C@@H]2C=C3CC[C@@H]4[C@H](CC[C@]5(C)[C@@H](c6ccc(=O)oc6)CC[C@]45O)[C@@]3(C)CC2)[C@H](O)[C@H](O)[C@H]1O` in this assay.
Found: 0.0

Lookup: Returns: the outcome recorded for `COc1ccc(/C(=C/C(=O)N2CCOCC2)c2ccc(Cl)cc2)cc1OC` in this assay.
Found: 0.0

Lookup: Returns: the outcome recorded for `CN(C)C(=S)[S-].CN(C)C(=S)[S-].[Cu+2]` in this assay.
Found: 1.0

----------
# Assay protocol: qHTS assay to identify small molecule agonists of the TGF-beta/Smad signaling pathway - cell viability counter screen (AID 1346829); further: nearly all actives have a fitted effect of over 45% in size
# Reported conditions: SBE-bla HEK293T viability, CellTiter-Glo luminescence, 5 h; series mostly up to 76.8 µM
Results filed as inconclusive are left out. Calls of active or inactive are those of the source. Calls come from the whole dose curve; as a rule, active = well fitted cell-killing curve with a large enough effect in the repeat runs; inconclusive = weak or mixed curves, or effect the other way; inactive = flat fitted curve, though single readings scatter.
Output constraint: value belongs to active, inactive

Lookup: Returns: the outcome recorded for `CC1(C)[C@H](C(=O)O[C@H](C#N)c2cccc(Oc3ccccc3)c2)[C@@H]1/C=C(\Cl)C(F)(F)F` in this assay.
Found: inactive

Lookup: Returns: the outcome recorded for `CCN(CC)C(=S)[S-].CCN(CC)C(=S)[S-].[Zn+2]` in this assay.
Found: active

Lookup: Returns: the outcome recorded for `N#CCc1ccc(Cl)cc1` in this assay.
Found: inactive

Lookup: Returns: the outcome recorded for `CCCCOCN(C(=O)CCl)c1c(CC)cccc1CC` in this assay.
Found: inactive

Lookup: Returns: the outcome recorded for `BrC(Br)C(Br)(Br)Br` in this assay.
Found: inactive

Lookup: Returns: the outcome recorded for ClC1=C(Cl)C2(Cl)C3C(Cl)C(Cl)CC3C1(Cl)C2(Cl)Cl (centres undefined) in this assay.
Found: active

Lookup: Returns: the outcome recorded for `CCCN(CCC)c1c([N+](=O)[O-])cc(S(N)(=O)=O)cc1[N+](=O)[O-]` in this assay.
Found: active

Lookup: Returns: the outcome recorded for CC(C)(COCC1CO1)COCC1CO1 (centres undefined) in this assay.
Found: inactive

Lookup: Returns: the outcome recorded for CCOC(=O)OC1=C(c2cc(C)ccc2C)C(=O)NC12CCC(OC)CC2 (centres undefined) in this assay.
Found: inactive

Lookup: Returns: the outcome recorded for Clc1ccc(COC(Cn2ccnc2)c2ccc(Cl)cc2Cl)cc1 (centres undefined) in this assay.
Found: active

Lookup: Returns: the outcome recorded for `C=CCOC(N)=O` in this assay.
Found: inactive

Lookup: Returns: the outcome recorded for CC(C)CC(C)N (centres undefined) in this assay.
Found: inactive

Lookup: Returns: the outcome recorded for COC(=O)N(C(=O)N1COC2(C(=O)OC)Cc3cc(Cl)ccc3C2=N1)c1ccc(OC(F)(F)F)cc1 (centres undefined) in this assay.
Found: inactive

Lookup: Returns: the outcome recorded for CNC(C)Cc1ccc2c(c1)OCO2 (centres undefined) in this assay.
Found: inactive

Lookup: Returns: the outcome recorded for `Oc1ccccc1Br` in this assay.
Found: inactive

Lookup: Returns: the outcome recorded for `COc1ccc(/C(=C/C(=O)N2CCOCC2)c2ccc(Cl)cc2)cc1OC` in this assay.
Found: inactive

Lookup: Returns: the outcome recorded for `CCCSP(=O)(OCC)SCCC` in this assay.
Found: inactive

Lookup: Returns: the outcome recorded for `Clc1ccc(CO/N=C(\Cn2ccnc2)c2ccc(Cl)cc2Cl)c(Cl)c1` in this assay.
Found: inactive

Lookup: Returns: the outcome recorded for `Clc1ccc(-c2ccc(Cl)c(Cl)c2Cl)c(Cl)c1Cl` in this assay.
Found: inactive

Lookup: Returns: the outcome recorded for `O=C(CCl)C(Cl)Cl` in this assay.
Found: inactive

Lookup: Returns: the outcome recorded for C[C@H]1CC[C@@H]2[C@@H](C)[C@H]3[C@H](C[C@H]4[C@@H]5CC=C6CC(O[C@@H]7O[C@H](CO)[C@H](O)[C@H](O[C@@H]8O[C@H](CO)[C@@H](O)[C@H](O)[C@H]8O)[C@H]7O[C@H]7O[C@@H](C)[C@H](O)[C@@H](O)[C@H]7O)CC[C@]6(C)[C@H]5CC[C@]34C)N2C1 (some centres undefined) in this assay.
Found: active

Lookup: Returns: the outcome recorded for `Oc1cccc(-c2ccccc2)c1` in this assay.
Found: inactive

Lookup: Returns: the outcome recorded for `O=c1ssc(Cl)c1Cl` in this assay.
Found: inactive

Lookup: Returns: the outcome recorded for `ClCc1ccccc1CCl` in this assay.
Found: inactive
